# TEST_TARGET: T1, ErbB4 (Rattus norvegicus, UniProt Q62956)
# T1 construct: forming the ErbB2/ErbB4 complex in cardiomyocytes and the ErbB2/ErbB3 complex in Schwann cells; endogenous in cells; host or cells: primary neonatal rat cardiomyocytes (Sprague Dawley pups, 0 to 4 days old)
# T1 sequence (Q62956 26-1308): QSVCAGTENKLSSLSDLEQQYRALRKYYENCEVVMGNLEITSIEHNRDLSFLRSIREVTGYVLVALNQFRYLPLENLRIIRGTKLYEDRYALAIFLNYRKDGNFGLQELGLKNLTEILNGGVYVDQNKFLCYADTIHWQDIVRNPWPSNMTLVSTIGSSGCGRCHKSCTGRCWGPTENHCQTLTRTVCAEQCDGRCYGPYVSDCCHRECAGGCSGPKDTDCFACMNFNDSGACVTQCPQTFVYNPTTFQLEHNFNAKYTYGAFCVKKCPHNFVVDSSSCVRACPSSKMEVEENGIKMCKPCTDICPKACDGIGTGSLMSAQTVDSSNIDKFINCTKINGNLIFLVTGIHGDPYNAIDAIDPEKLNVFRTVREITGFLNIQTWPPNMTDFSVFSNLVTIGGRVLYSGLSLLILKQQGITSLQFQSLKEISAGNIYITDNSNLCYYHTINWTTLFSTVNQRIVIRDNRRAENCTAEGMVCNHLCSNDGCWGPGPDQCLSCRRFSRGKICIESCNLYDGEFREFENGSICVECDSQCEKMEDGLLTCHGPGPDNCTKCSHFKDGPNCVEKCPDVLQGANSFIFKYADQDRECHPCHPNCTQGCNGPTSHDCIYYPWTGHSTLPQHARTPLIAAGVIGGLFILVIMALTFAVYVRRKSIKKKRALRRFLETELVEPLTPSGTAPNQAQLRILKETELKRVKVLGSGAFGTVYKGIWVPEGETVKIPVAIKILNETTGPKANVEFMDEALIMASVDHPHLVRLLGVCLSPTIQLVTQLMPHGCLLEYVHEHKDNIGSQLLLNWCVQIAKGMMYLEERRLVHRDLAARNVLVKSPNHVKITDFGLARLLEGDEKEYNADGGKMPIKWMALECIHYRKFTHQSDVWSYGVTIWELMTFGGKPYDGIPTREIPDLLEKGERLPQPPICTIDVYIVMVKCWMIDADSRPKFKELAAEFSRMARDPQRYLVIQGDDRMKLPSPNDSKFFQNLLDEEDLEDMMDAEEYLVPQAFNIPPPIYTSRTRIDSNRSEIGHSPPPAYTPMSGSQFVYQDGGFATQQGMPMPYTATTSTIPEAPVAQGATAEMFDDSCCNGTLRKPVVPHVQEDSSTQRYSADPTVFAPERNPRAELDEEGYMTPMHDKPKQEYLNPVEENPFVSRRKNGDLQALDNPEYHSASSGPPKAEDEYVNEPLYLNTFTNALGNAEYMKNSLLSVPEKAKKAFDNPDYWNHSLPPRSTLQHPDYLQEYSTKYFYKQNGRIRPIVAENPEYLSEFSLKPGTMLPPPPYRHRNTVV
# T1 sequence (P06494 23-1257 partner): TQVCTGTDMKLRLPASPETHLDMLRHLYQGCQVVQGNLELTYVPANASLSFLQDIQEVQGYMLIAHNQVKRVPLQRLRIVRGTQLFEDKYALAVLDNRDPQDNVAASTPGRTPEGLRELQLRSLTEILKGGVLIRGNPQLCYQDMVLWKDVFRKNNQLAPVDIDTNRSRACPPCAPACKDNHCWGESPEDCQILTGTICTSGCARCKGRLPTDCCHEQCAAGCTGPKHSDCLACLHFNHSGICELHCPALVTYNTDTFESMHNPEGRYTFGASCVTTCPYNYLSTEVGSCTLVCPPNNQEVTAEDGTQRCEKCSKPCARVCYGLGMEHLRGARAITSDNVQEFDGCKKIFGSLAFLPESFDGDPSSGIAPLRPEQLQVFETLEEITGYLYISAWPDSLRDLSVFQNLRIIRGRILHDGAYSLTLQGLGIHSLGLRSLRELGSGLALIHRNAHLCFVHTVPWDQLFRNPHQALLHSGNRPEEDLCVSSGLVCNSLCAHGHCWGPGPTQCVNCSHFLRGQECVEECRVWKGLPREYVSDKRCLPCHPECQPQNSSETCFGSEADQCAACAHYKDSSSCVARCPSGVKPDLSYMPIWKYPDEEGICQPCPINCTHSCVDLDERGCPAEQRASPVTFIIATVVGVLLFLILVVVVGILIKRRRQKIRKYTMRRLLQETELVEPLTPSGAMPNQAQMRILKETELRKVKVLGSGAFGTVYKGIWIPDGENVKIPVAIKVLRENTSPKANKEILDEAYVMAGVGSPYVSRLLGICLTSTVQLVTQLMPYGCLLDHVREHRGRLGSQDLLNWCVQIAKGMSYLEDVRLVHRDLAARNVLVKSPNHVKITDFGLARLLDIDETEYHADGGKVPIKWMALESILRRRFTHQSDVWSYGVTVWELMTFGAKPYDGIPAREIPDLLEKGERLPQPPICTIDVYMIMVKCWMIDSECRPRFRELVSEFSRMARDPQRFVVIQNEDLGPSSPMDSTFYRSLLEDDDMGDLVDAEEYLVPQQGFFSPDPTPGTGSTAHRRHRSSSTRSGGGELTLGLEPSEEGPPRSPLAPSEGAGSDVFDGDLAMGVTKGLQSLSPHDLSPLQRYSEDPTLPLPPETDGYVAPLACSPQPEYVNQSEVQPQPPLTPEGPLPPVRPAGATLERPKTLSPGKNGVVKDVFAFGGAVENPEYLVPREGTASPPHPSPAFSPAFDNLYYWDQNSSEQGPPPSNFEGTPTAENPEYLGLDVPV
# PROCEDURE_SUMMARY: In vitro phosphorylation of Akt in neonatal rat cardiomyocytes
# Type: cell-based
# STATED_CONDITIONS: top value of the Akt phosphorylation data points in cardiomyocytes; wild-type control 100
CM % Agonism AVG values by entry

| MOLECULE | CM % Agonism AVG [%] |
| --- | --- |
| huNRG1(S177-F229)(NRGE1C) (D48T_F49Q_M50I) 6xHis: 6xHis-tagged NRG1 variant SEQ ID NO:118 (protein, 6xHis tag; huNRG1(S177-F229)(NRGE1C) (D48T_F49Q_M50I) 6xHis) SHLVKCGEKHKSFCVNGGECFMIEGPSNPSRYLCKCPNEFTGDRCQETQIASFGGGGEGGGGAGGGGHHHHHH | 105.7 |
| huNRG1(S177-F229)(NRGE1C) (E47S_D48A_F49L_M50T) 6xHis: 6xHis-tagged NRG1 variant SEQ ID NO:122; ErbB4 selective agonist without Fc of Example 3 (protein, 6xHis tag; huNRG1(S177-F229)(NRGE1C) (E47S_D48A_F49L_M50T) 6xHis) SHLVKCGEKHKSFCVNGGECFMIEGPSNPSRYLCKCPNEFTGDRCQSALTASFGGGGEGGGGAGGGGHHHHHH | 85.89 |
| huNRG1(S177-F229)(NRGE1C) (E47S_D48T_F49R_M50V) 6xHis: 6xHis-tagged NRG1 variant SEQ ID NO:123 (protein, 6xHis tag; huNRG1(S177-F229)(NRGE1C) (E47S_D48T_F49R_M50V) 6xHis) SHLVKCGEKHKSFCVNGGECFMIEGPSNPSRYLCKCPNEFTGDRCQSTRVASFGGGGEGGGGAGGGGHHHHHH | 87.47 |
| huNRG1(S177-F229)(NRGE1C) (E47K_D48T_F49S_M50L) 6xHis: 6xHis-tagged NRG1 variant SEQ ID NO:120 (protein, 6xHis tag; huNRG1(S177-F229)(NRGE1C) (E47K_D48T_F49S_M50L) 6xHis) SHLVKCGEKHKSFCVNGGECFMIEGPSNPSRYLCKCPNEFTGDRCQKTSLASFGGGGEGGGGAGGGGHHHHHH | 91.82 |
| huNRG1(S177-F229)(NRGE1C) (E47A_D48P_F49H_M50I) 6xHis: 6xHis-tagged NRG1 variant SEQ ID NO:119 (protein, 6xHis tag; huNRG1(S177-F229)(NRGE1C) (E47A_D48P_F49H_M50I) 6xHis) SHLVKCGEKHKSFCVNGGECFMIEGPSNPSRYLCKCPNEFTGDRCQAPHIASFGGGGEGGGGAGGGGHHHHHH | 96.47 |
| huNRG1(S177-F229)(NRGE1D) (E47V_D48T_F49R_M50L) 6xHis: 6xHis-tagged NRG1 variant SEQ ID NO:130 (protein, 6xHis tag; huNRG1(S177-F229)(NRGE1D) (E47V_D48T_F49R_M50L) 6xHis) SHLVKCGESHKSFCVNGGECYMVEGSSIPSRYLCKCPNEFTGDRCQVTRLASFGGGGEGGGGAGGGGHHHHHH | 97.95 |
| huNRG1(S177-F229)(NRGE1D) 6xHis: 6xHis-tagged NRG1 variant SEQ ID NO:126 (protein, 6xHis tag; huNRG1(S177-F229)(NRGE1D) 6xHis) SHLVKCGESHKSFCVNGGECYMVEGSSIPSRYLCKCPNEFTGDRCQEDFMASFGGGGEGGGGAGGGGHHHHHH | 90.65 |
